biological target: human OT7T175 (metastin receptor) (human, UniProt Q969F8 1-398); test: cell-based or functional assay
Sequence (Q969F8 whole entry L364H): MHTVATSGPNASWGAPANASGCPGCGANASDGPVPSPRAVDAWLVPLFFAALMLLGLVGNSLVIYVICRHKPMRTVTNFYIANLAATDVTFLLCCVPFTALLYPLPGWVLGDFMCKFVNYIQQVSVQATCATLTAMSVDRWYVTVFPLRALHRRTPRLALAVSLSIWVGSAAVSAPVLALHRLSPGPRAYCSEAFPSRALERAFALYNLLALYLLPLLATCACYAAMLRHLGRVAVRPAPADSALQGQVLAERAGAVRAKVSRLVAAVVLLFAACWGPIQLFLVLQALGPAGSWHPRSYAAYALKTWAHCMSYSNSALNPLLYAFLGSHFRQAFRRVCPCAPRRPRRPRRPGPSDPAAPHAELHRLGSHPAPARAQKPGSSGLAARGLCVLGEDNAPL
Non-standard residues stand in square brackets, D forms with d. No end group written: not given here. Phe(4-Cl) = N[C@@H](Cc1ccc(Cl)cc1)C(=O)O; Phe(2-Cl) = N[C@@H](Cc1ccccc1Cl)C(=O)O; 2Nal = N[C@@H](Cc1ccc2ccccc2c1)C(=O)O; Arg(Me) = CNC(=N)NCCC[C@H](N)C(=O)O; azaGly = NNC(=O)O
Hi there, I'd appreciate the recorded Ca ion level-increasing activity (FLIPR) for every entry that follows.

Dear colleague, I am looking for the recorded Ca ion level-increasing activity (FLIPR) of the following binder: [dY]N[2Nal]NSF[azaGly]L[Arg(Me)]F-NH2 (N-terminus assumed; SMILES CNC(=N)NCCC[C@H](NC(=O)[C@H](CC(C)C)NC(=O)NNC(=O)[C@H](Cc1ccccc1)NC(=O)[C@H](CO)NC(=O)[C@H](CC(N)=O)NC(=O)[C@H](Cc1ccc2ccccc2c1)NC(=O)[C@H](CC(N)=O)NC(=O)[C@H](N)Cc1ccc(O)cc1)C(=O)N[C@@H](Cc1ccccc1)C(N)=O, also called Compound No. 246) [[D-Tyr1,Nal(2)3,AzaGly7,Arg(Me)9]MS10] 2 x Metastin (1-54)

[dY]NWNSFGL[Arg(Me)]W-NH2 (N-terminus assumed; SMILES CNC(=N)NCCC[C@H](NC(=O)[C@H](CC(C)C)NC(=O)CNC(=O)[C@H](Cc1ccccc1)NC(=O)[C@H](CO)NC(=O)[C@H](CC(N)=O)NC(=O)[C@H](Cc1c[nH]c2ccccc12)NC(=O)[C@H](CC(N)=O)NC(=O)[C@H](N)Cc1ccc(O)cc1)C(=O)N[C@@H](Cc1c[nH]c2ccccc12)C(N)=O, also called Compound No. 174) [[D-Tyr1,Arg(Me)9,Trp10]MS10] ? 10 x Metastin (1-54)

[dY]N[Phe(4-Cl)]NSF[azaGly]L[Arg(Me)]F-NH2 (N-terminus assumed; SMILES CNC(=N)NCCC[C@H](NC(=O)[C@H](CC(C)C)NC(=O)NNC(=O)[C@H](Cc1ccccc1)NC(=O)[C@H](CO)NC(=O)[C@H](CC(N)=O)NC(=O)[C@H](Cc1ccc(Cl)cc1)NC(=O)[C@H](CC(N)=O)NC(=O)[C@H](N)Cc1ccc(O)cc1)C(=O)N[C@@H](Cc1ccccc1)C(N)=O, also called Compound No. 249) [[D-Tyr1,Phe(4Cl)3,AzaGly7,Arg(Me)9]MS10] ? 1 x Metastin (1-54)

[dY]N[Phe(2-Cl)]NSF[azaGly]L[Arg(Me)]F-NH2 (N-terminus assumed; SMILES CNC(=N)NCCC[C@H](NC(=O)[C@H](CC(C)C)NC(=O)NNC(=O)[C@H](Cc1ccccc1)NC(=O)[C@H](CO)NC(=O)[C@H](CC(N)=O)NC(=O)[C@H](Cc1ccccc1Cl)NC(=O)[C@H](CC(N)=O)NC(=O)[C@H](N)Cc1ccc(O)cc1)C(=O)N[C@@H](Cc1ccccc1)C(N)=O, also called Compound No. 247) [[D-Tyr1,Phe(2Cl)3,AzaGly7,Arg(Me)9]MS10] ? 1 x Metastin (1-54)

[dY]NWSSFGL[Arg(Me)]F-NH2 (N-terminus assumed; SMILES CNC(=N)NCCC[C@H](NC(=O)[C@H](CC(C)C)NC(=O)CNC(=O)[C@H](Cc1ccccc1)NC(=O)[C@H](CO)NC(=O)[C@H](CO)NC(=O)[C@H](Cc1c[nH]c2ccccc12)NC(=O)[C@H](CC(N)=O)NC(=O)[C@H](N)Cc1ccc(O)cc1)C(=O)N[C@@H](Cc1ccccc1)C(N)=O) [[D-Tyr1,Ser4,Arg(Me)9]MS10] ? 0.5 x Metastin (1-54)

Reference source for all entries: patent US20090298765A1
